Species: Rattus norvegicus
EXPERIMENT: Open TG-GATES - Regimen: Daily Repeat
Type: toxicity, organism-based, Sprague-Dawley
Parameters: regimen Daily Repeat, gender Male, age 6 weeks
DETAILS: in vivo, po, 0 mg/kg, 72 h, tissue Blood, route gavage, dose level Control, time 3 day
This listing pairs compounds with measured Fbg.
# unit: mg/dL | format: bare number

Example compounds with recorded Fbg:
Nc1nc(N)c2nc(-c3ccccc3)c(N)nc2n1 = 334.2
C#C[C@]1(O)CC[C@H]2[C@@H]3CCc4cc(O)ccc4[C@H]3CC[C@@]21C [ETHINYL ESTRADIOL] = 261.6
CC(C)(S)[C@@H](N)C(=O)O [PENICILLAMINE] = 305
O=C(N[C@H](CO)[C@H](O)c1ccc([N+](=O)[O-])cc1)C(Cl)Cl [CHLORAMPHENICOL] = 270.4
CCN1CCCC1CNC(=O)c1cc(S(N)(=O)=O)ccc1OC (stereo unspecified) [SULPIRIDE] = 286.8
Oc1ncnc2[nH]ncc12 [ALLOPURINOL] = 237
CC(C)C(=O)Nc1ccc([N+](=O)[O-])c(C(F)(F)F)c1 [FLUTAMIDE] = 219.2
CCC(C)(C)C(=O)O[C@H]1C[C@@H](C)C=C2C=C[C@H](C)[C@H](CC[C@@H]3C[C@@H](O)CC(=O)O3)[C@H]21 [SIMVASTATIN] = 227
CN1C(=O)OC(C)(C)C1=O [TRIMETHADIONE] = 265
O=C(O)c1cccnc1 [NIACIN] = 321

Please indicate Fbg recorded for CC(=O)Oc1cc(C(C)C)c(OCCN(C)C)cc1C [MOXISYLYTE]
327.4

Please indicate Fbg recorded for CCc1oc2ccccc2c1C(=O)c1cc(I)c(O)c(I)c1 [BENZIODARONE]
216.8

Please indicate Fbg recorded for CC(=N)S [THIOACETAMIDE]
232.2

Please indicate Fbg recorded for C[C@](N)(Cc1ccc(O)c(O)c1)C(=O)O [METHYLDOPA]
258.8

Please indicate Fbg recorded for CCSCC[C@H](N)C(=O)O [ETHIONINE]
226.8

Please indicate Fbg recorded for C[C@]12CCC(=O)C=C1CC[C@@H]1[C@@H]2CC[C@@]2(C)[C@H]1CC[C@]2(C)O [METHYLTESTOSTERONE]
280

====

This listing pairs compounds with measured Bas.
Species on record: Rattus norvegicus
EXPERIMENT: Open TG-GATES - Regimen: Daily Repeat
Type: toxicity, organism-based, Sprague-Dawley
Parameters: regimen Daily Repeat, gender Male, age 6 weeks
DETAILS: in vivo, po, 1000 mg/kg, […], tissue Blood, route gavage, dose level High, time 28 day
# unit: % | format: bare number

Example compounds with recorded Bas:
O=C(O)c1cccnc1 = 0
CC(C)(S)[C@@H](N)C(=O)O = 0.4
CCN1CCCC1CNC(=O)c1cc(S(N)(=O)=O)ccc1OC (centres undefined) [SULPIRIDE] = 0

Please indicate Bas recorded for "O=C(N[C@H](CO)[C@H](O)c1ccc([N+](=O)[O-])cc1)C(Cl)Cl"
0

====

This listing pairs compounds with measured Ht.
Species on record: Rattus norvegicus
EXPERIMENT: Open TG-GATES - Regimen: Single
Format: toxicity, organism-based, Sprague-Dawley
Parameters: regimen Single, gender Male, age 6 weeks
DETAILS: in vivo, po, 0 mg/kg, 9 h, tissue Blood, route gavage, dose level Control
# unit: % | format: bare number

Example compounds with recorded Ht:
C[C@]12CCC(=O)C=C1CC[C@@H]1[C@@H]2CC[C@@]2(C)[C@H]1CC[C@]2(C)O = 38.5
CCc1oc2ccccc2c1C(=O)c1cc(I)c(O)c(I)c1 = 40
CN1C(=O)OC(C)(C)C1=O = 40.8

Please indicate Ht recorded for "Oc1ncnc2[nH]ncc12"
41.1

Please indicate Ht recorded for "O=C(O)c1cccnc1"
39.1

====

Species on record: Rattus norvegicus
EXPERIMENT: Open TG-GATES - Regimen: Daily Repeat
Assay type: toxicity, organism-based, Sprague-Dawley
Parameters: regimen Daily Repeat, gender Male, age 6 weeks
DETAILS: in vivo, po, 0 mg/kg, […], tissue Plasma, route gavage, dose level Control, time 28 day
hey, just use TRUE if measured LDH is less than 80 IU/L, otherwise FALSE

CCSCC[C@H](N)C(=O)O = FALSE

For this compound, is LDH lower than 80 IU/L? CC(C)C(=O)Nc1ccc([N+](=O)[O-])c(C(F)(F)F)c1 [FLUTAMIDE]
FALSE

For this compound, is LDH lower than 80 IU/L? CCN1CCCC1CNC(=O)c1cc(S(N)(=O)=O)ccc1OC (stereo unspecified) [SULPIRIDE]
TRUE

For this compound, is LDH lower than 80 IU/L? "O=C(N[C@H](CO)[C@H](O)c1ccc([N+](=O)[O-])cc1)C(Cl)Cl"
TRUE

====

Species: Rattus norvegicus
EXPERIMENT: Open TG-GATES - Regimen: Daily Repeat
Assay type: toxicity, organism-based, Sprague-Dawley
Parameters: regimen Daily Repeat, gender Male, age 6 weeks
DETAILS: in vivo, po, 1000 mg/kg, […], tissue Plasma, route gavage, dose level High, time 28 day
This listing pairs compounds with measured GLC.
Answer with the value and then the unit.

Example compounds with recorded GLC:
CCN1CCCC1CNC(=O)c1cc(S(N)(=O)=O)ccc1OC (centres undefined) [SULPIRIDE] = 169 mg/dL
O=C(O)c1cccnc1 = 196.6 mg/dL
CC(C)(S)[C@@H](N)C(=O)O = 162.4 mg/dL

Please indicate GLC recorded for "O=C(N[C@H](CO)[C@H](O)c1ccc([N+](=O)[O-])cc1)C(Cl)Cl"
164.4 mg/dL

====

Organism: Rattus norvegicus
EXPERIMENT: Open TG-GATES - Regimen: Daily Repeat
Type: toxicity, organism-based, Sprague-Dawley
Design: regimen Daily Repeat, gender Male, age 6 weeks
DETAILS: in vivo, po, 100 mg/kg, 72 h, tissue Plasma, route gavage, dose level Low, time 3 day
MEASUREMENT_TYPE: ALP
Answer with the value and then the unit.

Example compounds with recorded ALP:
CCN1CCCC1CNC(=O)c1cc(S(N)(=O)=O)ccc1OC (centres undefined) [SULPIRIDE] = 1543 IU/L
O=C(N[C@H](CO)[C@H](O)c1ccc([N+](=O)[O-])cc1)C(Cl)Cl [CHLORAMPHENICOL] = 1563.4 IU/L
O=C(O)c1cccnc1 [NIACIN] = 1717.8 IU/L

Please indicate ALP recorded for CC(C)(S)[C@@H](N)C(=O)O [PENICILLAMINE]
1491 IU/L

====

This listing pairs compounds with measured TP.
Organism: Rattus norvegicus
EXPERIMENT: Open TG-GATES - Regimen: Daily Repeat
Format: toxicity, organism-based, Sprague-Dawley
Design: regimen Daily Repeat, gender Male, age 6 weeks
DETAILS: in vivo, po, 100 mg/kg, […], tissue Plasma, route gavage, dose level Low, time 7 day

Example compounds with recorded TP:
CCN1CCCC1CNC(=O)c1cc(S(N)(=O)=O)ccc1OC (centres undefined) [SULPIRIDE] = 5.6 g/dL
CC(C)(S)[C@@H](N)C(=O)O [PENICILLAMINE] = 5.8 g/dL
O=C(O)c1cccnc1 [NIACIN] = 5.5 g/dL

// moving on: another record for TP
Please indicate TP recorded for O=C(N[C@H](CO)[C@H](O)c1ccc([N+](=O)[O-])cc1)C(Cl)Cl [CHLORAMPHENICOL]
5.9 g/dL

====

Species on record: Rattus norvegicus
EXPERIMENT: Open TG-GATES - Regimen: Daily Repeat
Assay type: toxicity, organism-based, Sprague-Dawley
Set-up: regimen Daily Repeat, gender Male, age 6 weeks
DETAILS: in vivo, po, 100 mg/kg, 72 h, tissue Plasma, route gavage, dose level Low, time 3 day
MEASUREMENT_TYPE: TC

O=C(N[C@H](CO)[C@H](O)c1ccc([N+](=O)[O-])cc1)C(Cl)Cl [CHLORAMPHENICOL] = 80 mg/dL

Please indicate TC recorded for CC(C)(S)[C@@H](N)C(=O)O [PENICILLAMINE]
80.8 mg/dL

Please indicate TC recorded for O=C(O)c1cccnc1 [NIACIN]
84.2 mg/dL

Please indicate TC recorded for CCN1CCCC1CNC(=O)c1cc(S(N)(=O)=O)ccc1OC (centres undefined) [SULPIRIDE]
72 mg/dL

====

This listing pairs compounds with measured TBIL.
Organism: Rattus norvegicus
EXPERIMENT: Open TG-GATES - Regimen: Daily Repeat
Format: toxicity, organism-based, Sprague-Dawley
Parameters: regimen Daily Repeat, gender Male, age 6 weeks
DETAILS: in vivo, po, 100 mg/kg, […], tissue Plasma, route gavage, dose level Low, time 14 day
# unit: mg/dL | format: bare number

Example compounds with recorded TBIL:
O=C(O)c1cccnc1 = 0.002
CC(C)(S)[C@@H](N)C(=O)O = 0.028
O=C(N[C@H](CO)[C@H](O)c1ccc([N+](=O)[O-])cc1)C(Cl)Cl = 0.05

// moving on: another record for TBIL
Please indicate TBIL recorded for CCN1CCCC1CNC(=O)c1cc(S(N)(=O)=O)ccc1OC (centres undefined) [SULPIRIDE]
0.06
